Data origin, for the record: ChEMBL document CHEMBL3297654

Test system: Bacillus subtilis
METHOD_SUMMARY: Antimicrobial activity against Bacillus subtilis ATCC 6633 for 24 hrs by microdillution method
Format: functional
RUN_PARAMETERS: ATCC 6633, 24 h

[
  {
    "MOLECULE": "CN[C@@H]1[C@H](O[C@H]2[C@H](O[C@H]3[C@H](O)[C@@H](O)[C@H](N=C(N)N)[C@@H](O)[C@@H]3N=C(N)N)O[C@@H](C)[C@]2(O)C=O)O[C@@H](CO)[C@H](O)[C@H]1O [STREPTOMYCIN]",
    "MIC, µg/mL": 64
  },
  {
    "MOLECULE": "CC(=O)O[C@H]1CC[C@]2(C)[C@H]3CC=C4[C@@H]5CC(C)(C)CC[C@]5(C(=O)O)CC[C@@]4(C)[C@]3(C)CC[C@H]2[C@]1(C)/C=N/NC(N)=S",
    "MIC, µg/mL": 32
  },
  {
    "MOLECULE": "CC(=O)O[C@H]1CC[C@]2(C)[C@H]3CC=C4[C@@H]5CC(C)(C)CC[C@]5(C(=O)O)CC[C@@]4(C)[C@]3(C)CC[C@H]2[C@]1(C)/C=N\\O",
    "MIC, µg/mL": 32
  },
  {
    "MOLECULE": "CC1(C)CC[C@]2(C(=O)O)CC[C@]3(C)C(=CC[C@@H]4[C@@]5(C)CC[C@H](O)[C@@](C)(C=O)[C@@H]5CC[C@]43C)[C@@H]2C1",
    "MIC, µg/mL": 32
  },
  {
    "MOLECULE": "CC(=O)O[C@H]1CC[C@]2(C)[C@H]3CC=C4[C@@H]5CC(C)(C)CC[C@]5(C(=O)O)CC[C@@]4(C)[C@]3(C)CC[C@H]2[C@]1(C)C=O",
    "MIC, µg/mL": 64
  },
  {
    "MOLECULE": "CC1(C)CC[C@]2(C(=O)O)CC[C@]3(C)C(=CC[C@@H]4[C@@]5(C)CC[C@H](O)[C@@](C)(/C=N/O)[C@@H]5CC[C@]43C)[C@@H]2C1",
    "MIC, µg/mL": 64
  }
]
